All values here come from PubChem BioAssay (Tox21).

# target or system: Beta-2 adrenergic receptor (Homo sapiens)
# experiment description: Adrenergic beta2 receptor (ADRB2) small molecule antagonists, cell-based qHTS assay (AID 1963592); note: potency is the fitted concentration of half-maximal effect; nearly all actives have a fitted effect of over 50% in size
# applied conditions: CHO-ADRB2 cells, isoproterenol-stimulated cAMP HTRF ratio, 0.5 h; series mostly up to 92.4 µM
# Description: U.S. Tox21 Program National Center for Advancing Translational Sciences [NCATS] Division of Preclinical Innovation [DPI] U.S. Environmental Protection Agency [EPA] National Institutes of Environmental Health Sciences [NIEHS] National Toxicology Program [NTP] U.S. Food and Drug Administration [FDA] […] The principle of cAMP-Gs dynamic assay is based on HTRF technology, which facilitates the fluorescence resonance energy transfer (FRET) between donor Europium cryptate and acceptor d2-labeled cAMP. […]
Inconclusive results are not listed. The source made the active and inactive calls. Calls come from the whole dose curve.
recorded metric: Potency

smiles str: COc1cc2nc(N3CCN(C(=O)c4ccco4)CC3)nc(N)c2cc1OC
recorded metric: Potency
result: 14.6 µM (active)
--
smiles str: CCCCCN=C(N)N/N=C/c1c[nH]c2ccc(OC)cc12
recorded metric: Potency
result: 26.6 µM (active)
--
smiles str: O=S1(=O)c2cccc3cccc(c23)N1CCCN1CCN(c2ccc(F)cc2)CC1
recorded metric: Potency
result: 33.5 µM (active)
--
smiles str: CN1CCN(C2=Nc3cc(F)ccc3Cc3ccccc32)CC1
recorded metric: Potency
result: 29.8 µM (active)
